Molecular target: Presenilin-1 (Homo sapiens)

# compound, assay_system, IC50
data = [
    ("CC(C)[C@H](O)C(=O)N[C@@H](C)C(=O)NC1C(=O)N(C)CCc2ccccc21 (stereo partly specified)", "Presenilin-1 (Homo sapiens)", "11 nM"),
]
